The measured values listed here are drawn from ChEMBL document CHEMBL2021784.

test system: Fibroblast; assay: Induction of heat shock response in mouse fibroblasts expressing GFP at 2.5 uM after overnight incubation by fluorescence assay; format: functional, cell-based
Active and inactive are the calls of the source. The calls are words filed in the database; no cut-off is given here.
METRIC: Activity

INSERT INTO measurements (molecular_string, system_tested, result) VALUES
  ('C=C1C(=O)[C@]23C[C@H]1CC[C@H]2[C@]1(C)[C@@H](OC(C)=O)CC[C@@](C)(C(=O)O)[C@H]1C[C@@H]3O', 'Fibroblast', 'inactive'),
  ('C=C1C(=O)[C@]23C[C@H]1CC[C@H]2[C@]1(C)CCC[C@@](C)(C(=O)OC)[C@H]1C[C@@H]3O', 'Fibroblast', 'inactive'),
  ('C=C1C(=O)[C@]23C[C@H]1CC[C@H]2[C@]1(C)[C@@H](O)CC[C@@](C)(C(=O)OC)[C@H]1C[C@@H]3O', 'Fibroblast', 'inactive'),
  ('C=C1C(=O)[C@]23C[C@H]1CC[C@H]2[C@]1(C)CCC[C@@](C)(C(=O)O)[C@H]1C[C@@H]3O', 'Fibroblast', 'Active'),
  ('C=C1C(=O)[C@]23C[C@H]1CC[C@H]2[C@]1(C)[C@@H](OC(C)=O)CC[C@@](C)(C(=O)OC)[C@H]1C[C@@H]3O', 'Fibroblast', 'Active'),
  ('C=C1C(=O)[C@]23C[C@H]1CC[C@H]2[C@]1(C)C(=O)CC[C@@](C)(C(=O)OC)[C@H]1C[C@@H]3O', 'Fibroblast', 'inactive');

Data point: C=C1C(=O)[C@]23C[C@H]1CC[C@H]2[C@]1(C)[C@@H](O)[C@@H](O)C[C@@](C)(C(=O)OC)[C@H]1C[C@@H]3O ; Activity = inactive

According to the records, this molecule C=C1C(=O)[C@]23C[C@H]1CC[C@H]2[C@]1(C)[C@@H](OC(C)=O)CC[C@@](C)(C(=O)OC)[C@H]1C[C@@H]3OC(C)=O displays Activity of inactive

###

Parameter IC50: see the listing below.
tested on: MCF7; assay: Cytotoxicity against human MCF7 cells after 72 hrs by Alamar blue assay; type: functional, cell-based; conditions: MCF7, 72 h
Give a bare numeral; the unit nM is implied.

// solved cases for IC50 follow
INSERT INTO assay_data (molecular_string, result) VALUES
  ('COc1cccc2c1C(=O)c1c(O)c3c(c(O)c1C2=O)C[C@@](O)(C(=O)CO)C[C@@H]3O[C@H]1C[C@H](N)[C@H](O)[C@H](C)O1', 420),
  ('C=C1C(=O)[C@]23C[C@H]1CC[C@H]2[C@]1(C)[C@@H](OC(C)=O)CC[C@@](C)(C(=O)OC)[C@H]1C[C@@H]3OC(C)=O', 1180),
  ('C=C1C(=O)[C@]23C[C@H]1CC[C@H]2[C@]1(C)[C@@H](OC(C)=O)CC[C@@](C)(C(=O)OC)[C@H]1C[C@@H]3O', 530),
  ('C=C1C(=O)[C@]23C[C@H]1CC[C@H]2[C@]1(C)CCC[C@@](C)(C(=O)O)[C@H]1C[C@@H]3O', 4320),
  ('C=C1C(=O)[C@]23C[C@H]1CC[C@H]2[C@]1(C)[C@@H](O)[C@@H](O)C[C@@](C)(C(=O)OC)[C@H]1C[C@@H]3O', 2080);

Form field IC50, entry C=C1C(=O)[C@]23C[C@H]1CC[C@H]2[C@]1(C)C(=O)CC[C@@](C)(C(=O)OC)[C@H]1C[C@@H]3O : 1670
